tested on: NOMO1; assay: cell viability relative to DMSO control; higher = less cytotoxic; details: RPMI 5 mM glucose + 10% dialyzed FBS; 48 h; 0.0211 µM
Consider the following compounds; for each one, report its cell viability.
State just the number; it will be interpreted in %.

q: Provide measured cell viability value, entry: `CC(C)c1cc(C(=O)N2Cc3ccc(CN4CCN(C)CC4)cc3C2)c(O)cc1O`
a: 117

q: Provide measured cell viability value, entry: `N#Cc1ccnc(Nc2cc(C3CCN(C4COC4)CC3)cc(N3CCC(F)(F)C3)n2)c1`
a: 102

q: Provide measured cell viability value, entry: `O=C\1N(N\C=C1[N]2C=CN=N2)C3=NC=NC(=C3)N4CCOCC4`
a: 88.9

q: Provide measured cell viability value, entry: OC(=O)C(CC/1=C/C(=O)NC2=CC=CC=C12)NC(=O)C3=CC=C(Cl)C=C3 (configuration not stated)
a: 127

q: Provide measured cell viability value, entry: `CC[C@]12\C=C/CN3CC[C@]4([C@@H](N(C)C5=CC(=C(C=C45)[C@]6(C[C@H]7C[C@H](CN(C7)CC8=C6[NH]C9=C8C=CC=C9)C(C)(F)F)C(=O)OC)OC)[C@](O)([C@@H]1OC(C)=O)C(=O)OC)[C@H]23`
a: 93.7

q: Provide measured cell viability value, entry: `CC1(C)CNc2cc(NC(=O)c3cccnc3NCc3ccncc3)ccc21`
a: 112

q: Provide measured cell viability value, entry: `CC1(N2CCC(n3c([C@@H]4CCCNC4)nc4ccccc43)CC2)CCCCCCC1`
a: 115

q: Provide measured cell viability value, entry: `ClC1=CC\2=C(NC(=O)\C(=C2N[C@@H]3CN4CCC3CC4)C5=NC6=C([NH]5)C=CC=C6)C=C1`
a: 108

q: Provide measured cell viability value, entry: `NC(=O)c1cccc2cn(-c3ccc([C@@H]4CCCNC4)cc3)nc12`
a: 111

q: Provide measured cell viability value, entry: `N[S+](=O)([O-])c1cccc2c1C(=O)c1cccc(O)c1C2=O`
a: 103

q: Provide measured cell viability value, entry: `C[S+](=O)([O-])c1ccc(-c2cnc(N)c(C(=O)Nc3ccccc3)n2)cc1`
a: 104

q: Provide measured cell viability value, entry: `CNCc1ccc(-c2[nH]c3cc(F)cc4c3c2CCNC4=O)cc1`
a: 155

q: Provide measured cell viability value, entry: `O=C(Nc1ncc(SCCN2CCCC2)s1)[C@]1(c2ccc([S+](=O)([O-])C3CC3)cc2)C[C@H]1C1CCCCC1`
a: 126

q: Provide measured cell viability value, entry: `C[S+](=O)([O-])c1ccc(C(=O)Nc2ccc(Cl)c(-c3ccccn3)c2)c(Cl)c1`
a: 143

q: Provide measured cell viability value, entry: `CCC\C1=C\C(=O)NC(=S)N1`
a: 118

q: Provide measured cell viability value, entry: `CCC(=C/[C@H](C)C/C=C/C(C)=C/[C@@H](C)C(=O)[C@@H](C)[C@H](O)[C@@H](C)C/C(C)=C/C(=O)O)/C=C/[C@@H]1OC(=O)C=C[C@@H]1C`
a: 107

q: Provide measured cell viability value, entry: C=CC(=O)Nc1cccc(Nc2nc(NC3CCC(N(C)C)CC3)nc3c2ncn3C(C)C)c1 (configuration not stated)
a: 103

====

test system: P12-Ichikawa; experiment: cell viability relative to DMSO control; higher = less cytotoxic; details: RPMI 5 mM glucose + 10% dialyzed FBS; 48 h; 46.1 µM
Consider the following compounds; for each one, report its cell viability.
Mention the unit after the number when you answer.

q: Provide measured cell viability value, entry: `CC(C)c1ccc(Cn2ccc3c4c(N)nc(NC5CC5)nc4ccc32)cc1`
a: 2.44%

q: Provide measured cell viability value, entry: `NCCCCNCCCN`
a: 6.5%

q: Provide measured cell viability value, entry: `CCCCCCCCCC(=O)N[C@@H](Cc1c[nH]c2ccccc12)C(=O)N[C@H](CC(N)=O)C(=O)N[C@@H](CC(=O)O)C(=O)N[C@@H]1C(=O)NCC(=O)N[C@@H](CCCN)C(=O)N[C@@H](CC(=O)O)C(=O)N[C@H](C)C(=O)N[C@@H](CC(=O)O)C(=O)NCC(=O)N[C@H](CO)C(=O)N[C@@H]([C@@H](C)CC(=O)O)C(=O)N[C@@H](CC(=O)c2ccccc2N)C(=O)O[C@@H]1C`
a: 115%

q: Provide measured cell viability value, entry: CN1CCN2c3ncccc3Cc3ccccc3C2C1 (stereo unspecified)
a: 100%

q: Provide measured cell viability value, entry: `Cc1csc(NC(=O)c2sc3nc4c(c(C(F)(F)F)c3c2N)CCC4)n1`
a: 73.6%

q: Provide measured cell viability value, entry: `CCC(=C/[C@H](C)C/C=C/C(C)=C/[C@@H](C)C(=O)[C@@H](C)[C@H](O)[C@@H](C)C/C(C)=C/C(=O)O)/C=C/[C@@H]1OC(=O)C=C[C@@H]1C`
a: 13.8%
